Task for the reader: assign each of the following molecules its reported IC50.
- TGT: soluble epoxide hydrolase (sEH) (Homo sapiens, UniProt P34913)
- Sequence (P34913 whole entry): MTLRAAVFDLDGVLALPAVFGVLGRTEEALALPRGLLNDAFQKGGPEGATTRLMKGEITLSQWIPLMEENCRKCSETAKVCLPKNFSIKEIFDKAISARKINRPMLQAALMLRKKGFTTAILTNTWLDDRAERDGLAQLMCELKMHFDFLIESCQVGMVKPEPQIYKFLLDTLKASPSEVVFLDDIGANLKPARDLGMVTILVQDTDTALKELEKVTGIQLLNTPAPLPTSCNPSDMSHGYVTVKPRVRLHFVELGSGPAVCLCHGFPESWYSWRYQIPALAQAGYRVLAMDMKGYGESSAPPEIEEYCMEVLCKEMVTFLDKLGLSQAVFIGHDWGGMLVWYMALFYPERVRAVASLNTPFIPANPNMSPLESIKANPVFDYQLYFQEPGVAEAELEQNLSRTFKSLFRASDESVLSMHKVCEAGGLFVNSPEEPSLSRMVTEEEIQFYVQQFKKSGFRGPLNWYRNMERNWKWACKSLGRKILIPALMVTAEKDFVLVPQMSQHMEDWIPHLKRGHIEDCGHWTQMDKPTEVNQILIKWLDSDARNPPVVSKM
- ASSAY INFO: PHOME assay activity test, sEH enzyme inhibition (fluorescence)
- Type: biochemical
- CONDITION PARAMETERS: PHOME 5 μM, pH 7.0; 10 min pre-incubation; test compound concentration range 20 nM-0.082 nM

Take a look at these entries with their results.
CN(C)c1nc(N)ncc1-c1cc2[nH]c(-c3ccc(C(F)(F)F)cc3)nc2c(F)c1F ... < 0.082 nM
Cc1nc(N2CC(O)C2)ncc1-c1cc2[nH]c(-c3ccc(C(F)(F)F)cc3)nc2c(F)c1F ... < 0.082 nM

For every listed record, write down its IC50.
1. Cc1nc(N2CC(C(=O)O)C2)ncc1-c1cc2[nH]c(-c3ccc(S(=O)(=O)N(C)C)c(F)c3)nc2c(F)c1F
2. N#Cc1nc(N)ncc1-c1cc2[nH]c(-c3ccc(C(F)(F)F)cc3)nc2c(F)c1F
3. Cc1nc(N2CC(O)C2)ncc1-c1cc2[nH]c(-c3ccc(S(=O)(=O)N(C)C)c(F)c3)nc2c(F)c1F

> 20 nM
< 0.082 nM
> 20 nM
